- System: ABUTH
- ASSAY_NAME: Post-emergence herbicidal action
- Type: in vivo
- COND: Table 6, post-emergence (PO), 320 g/ha, assessed after about 3 weeks
Herbicidal action against ABUTH values, listed per item
QUANTITY_MEASURED: Herbicidal action against ABUTH

INSERT INTO measurements (substance_smiles, quantity_measured, assay_value) VALUES
  ('COc1c(F)ccc(COC(=O)c2nc(-c3ccc4ccsc4c3)cc(N)c2Cl)c1F', 'Herbicidal action against ABUTH', '100%'),
  ('Nc1c(F)c(-c2ccc3occc3c2)nc(C(=O)OCc2ccc(Cl)cc2)c1Cl', 'Herbicidal action against ABUTH', '90%'),
  ('Nc1cc(-c2ccc3occc3c2)nc(C(=O)OCc2c(F)cc(F)cc2F)c1Cl', 'Herbicidal action against ABUTH', '100%'),
  ('COc1c(F)ccc(COC(=O)c2nc(-c3ccc4ccoc4c3)cc(N)c2Cl)c1F', 'Herbicidal action against ABUTH', '100%'),
  ('Nc1cc(-c2ccc3ccoc3c2)nc(C(=O)OCc2ccc(F)c(F)c2F)c1Cl', 'Herbicidal action against ABUTH', '90%'),
  ('Nc1c(F)c(-c2ccc3ccoc3c2)nc(C(=O)OCc2ccc(Cl)cc2)c1Cl', 'Herbicidal action against ABUTH', '100%'),
  ('Nc1cc(-c2ccc3ccsc3c2)nc(C(=O)OCc2ccc(F)cc2F)c1Cl', 'Herbicidal action against ABUTH', '90%'),
  ('Nc1c(F)c(-c2ccc3occc3c2)nc(C(=O)OCc2c(F)cc(F)cc2F)c1Cl', 'Herbicidal action against ABUTH', '80%');

====

- System: SETVI
- ASSAY_NAME: Pre-emergence herbicidal action
- Format: in vivo
- COND: Table 3, pre-emergence (PE), 320 g/ha, scored after 3 weeks
Quick rule for you: Herbicidal action against SETVI under 80% gets MET, anything else gets NOT MET.

INSERT INTO assay_data (compound, label) VALUES
  ('COc1c(F)ccc(COC(=O)c2nc(-c3ccc4sccc4c3)cc(N)c2Cl)c1F [Example I-22]', 'NOT MET'),
  ('Nc1c(F)c(-c2ccc3occc3c2)nc(C(=O)OCc2ccc(Cl)cc2)c1Cl [Example I-47]', 'MET'),
  ('Nc1c(F)c(-c2ccc3sccc3c2)nc(C(=O)OCc2ccc(F)cc2)c1Cl [Example I-29]', 'MET'),
  ('Nc1c(F)c(-c2ccc3ccsc3c2)nc(C(=O)OCc2ccc(F)cc2F)c1Cl [Example I-42]', 'MET');

====

Herbicidal action against ABUTH overview
- Tested on: ABUTH
- ASSAY_NAME: Post-emergence herbicidal action
- Format: in vivo
- COND: Table 6, post-emergence (PO), 320 g/ha, assessed after about 3 weeks
QUANTITY_MEASURED: Herbicidal action against ABUTH (%)

INSERT INTO results (substance_smiles, assay_value) VALUES
  ('Nc1c(F)c(-c2ccc3ncsc3c2)nc(C(=O)OCc2ccc(Cl)cc2)c1Cl', 90),
  ('Nc1c(F)c(-c2ccc3occc3c2)nc(C(=O)OCc2ccc(F)cc2F)c1Cl', 90),
  ('Nc1cc(-c2ccc3ncsc3c2)nc(C(=O)OCc2ccc(F)cc2F)c1Cl', 100),
  ('Nc1cc(-c2ccc3ccoc3c2)nc(C(=O)OCc2ccc(Cl)cc2)c1Cl', 90),
  ('Nc1cc(-c2ccc3ccoc3c2)nc(C(=O)OCc2cc(F)c(F)cc2F)c1Cl', 90),
  ('Nc1cc(-c2ccc3occc3c2)nc(C(=O)OCc2ccccc2C(F)(F)F)c1Cl', 100),
  ('Nc1cc(-c2ccc3occc3c2)nc(C(=O)OCc2cc(F)c(F)cc2F)c1Cl', 100),
  ('Nc1cc(-c2ccc3ccoc3c2F)nc(C(=O)OCc2ccc(Cl)cc2)c1Cl', 90);
